The measured values listed here are drawn from the DeepSol protein solubility set.

Assay: soluble on expression in E. coli; label from the status in PepcDB or PDB records

seq: GLDNELSLVDGQDRTLTVQQWDTFLNGVFPLDRNRLTREWFHSGRAKYIVAGPGADEFEGTLELGYQIGGPGIQEVATFSVDVSGAEGGVAVSNAHGTVTGAAGGVLLRPFARLIASTGDSVTTYGEPWNMN
soluble on expression in E. coli: soluble
--
seq: MSLELPILPTSVIGSYPKPRWLLRMYKLRELGKIPEEDFKEAVRDASISVLREHERAGIDIPWDGEMGRSEMTEYFTSKIKGFKFYGPVRVWGNAYFNKAAAVDKLEYEEPLVLDEFLWVKENTTREIVKIPITGPYTIAEWSFNEYYPDKESFVMDLAEIINKELKVLEKHGAKFVQLDEPAMLNHPSEVPLAVDAINRAVKGIKMKVGLHVCYSNYNLLADYFDEIKVTQFALEFANRNFRDMDFLKKLSNKELGFGVVDVHNPRVESVEEIRQAIKKVFTYLEPEWVYINPDCGLKLLDRKIAYQKLVNMVQAVRGVRKELEKEGKTTIEFRTLKDIEGHHHHHH
soluble on expression in E. coli: soluble

###

Assay: soluble on expression in E. coli; label from the status in PepcDB or PDB records
measured.parameter: soluble on expression in E. coli

seq: MGSDKIHHHHHHEEMEKGFDPKRYARELWFKLQDMMNEGLGYDAVEVLNTLDENPELAHQKFAKVVGVSNYRYYIIQGVGEIVEIKDDGILVKVRENRKVPDLFLSNHIFGNGIVNATGIAKMEDFDRIIDFNLTATELNKIVKEEVVNSFLKQLSKGAGSVGSLVRFIAVFTLLKDEEIKYPIEAIPLYLEIQGGF
soluble on expression in E. coli: soluble
--
seq: MLNSLEAYNENKFIVFGINDNKEIIGLEKNMFDDAHYQNIIDEYINPRPKIETGQIEYNDEKIGYIAINSNNLETPYELKKELRIKKSKSSLSKGLSFIRKGSTNTPIIQEEREKLILKKTEKNPNNKNLFTALNQKNHAIEEIYYKDNKKSGRKKLDPSNNNGRFTIGELSYEFEMILDVASNEIARIMKTDTIKVARIKNYKDNDIYYELQENLKSPNEVVKKLDTSSRSRDFTLKDLGILINKHGRIAEIFFKEIKSESHGSEENIVEIEWNIPDTKLEHHHHHH
soluble on expression in E. coli: not soluble
--
seq: MPIASYAQELKLALHQYPNFPSEGILFEDFLPIFRNPGLFQKLIDAFKLHLEEAFPEVKIDYIVGLESRGFLFGPTLALALGVGFVPVRKAGKLPGECFKATYEKEYGSDLFEIQKNAIPAGSNVIIVDDIIATGGSAAAAGELVEQLEANLLEYNFVMELDFLKGRSKLNAPVFTLLNAQKEALKK
soluble on expression in E. coli: soluble
--
seq: MMFPAKIISLRGGATEAIVSADLDRKTELAQETATRWFERRLSLRSPLDPPLPERPGRPEKPELVPPTAVERRSLHSVKGRIALLHAIAHIELNAVDLALDIVARYASEPVPHSFFDGWMQVAFEEAKHFRLVRDRLVSLGADYGDLPAHDGLWQAAHSTRNDLTARLAVVPLILEARGLDVTPSLQAKMRETGDLESAAVLDVIYNDEKGHVAIGAKWFRFLCAREKKDPAATFRQLVRSNFRGPLKPPFNDLARAEAGLTPSFYRSLTSVSHSLEHHHHHH
soluble on expression in E. coli: not soluble
--
seq: MGHHHHHHSHMAHYLFNPFYLRLDCDLSKAYIHRIFASFYMEKEADAHTNEKRSKPMTQQYIVEPKKGLGLKLKKGQILKVVDVEGQQVADFVAYHAKDSYEHLDQGATIDAIHSIHVKVSDHLYSNPVLSRWLPLIEDTGPASMICCWPACRPDIEQALIWEAKRMSFRIRAMTICAVRLSSLAYRSPTCITHLRYCMDTVLDEEGNLSVETPLSDAGDYVRLRAEMDLIVAFSSCPRCNRDIQWRQCDIHTG
soluble on expression in E. coli: not soluble

Next item in the queue.
Ask: Need soluble on expression in E. coli of MSMDNHIVIMAGGIGSRFWPMSTPECPKQFIDVMGCGRTLIQLTADRFDGVCPRENVWVVTSEKYIDIVREQLPEIPESNILAEPCARNTAPCIAYACWKIKKKHPNANVVVTPSDALVINTGEFRRVVEKALRFTDNSSAIVTLGIKPTRPETGYGYIAAGDQIMTDKEIFTVDAFKEKPDRETADRYLAEGNYFWNAGIFVWNVRTITSVMRVYAPGIAQIFDRIFPDFYTEKENETIKKLFPTCEAISIDYAVMEKAQEIYVLPASFGWSDLGTWGALRGLLPQDKSGNATVGADVRLYESKNCIVHTSEEKRVVIQGLDGYIIAEKDNTLLICKLDEEQRIKEFSK , thanks.
Reply: not soluble

###

Test: soluble on expression in E. coli; label from the status in PepcDB or PDB records
measured.parameter: soluble on expression in E. coli

seq: SNAMNVIRLKEDKFREALRLSEYAFQYKVDEDRLQQQITKMKESHEVYGIMEGENLAAKLHLIPFHIYIGKEKFKMGGVAGVATYPEYRRSGYVKELLQHSLQTMKKDGYTVSMLHPFAVSFYRKYGWELCANLLVCHMTKSDLVMKKQVNGTVKRFNKESHPEEVEKLYETFAELFSGMLVRNEKWWLQAVYDDLTLAIYYDENQTAAGYMLYKIENYKMTVEEFVPLHNEARNGLWNFICQHDSMIKDLEMTVSENEPLLYTLQEPRVKTEIKPYFMGRIVDVEQFLKQYELNWNNVQQEVILHITDSFAQWNNITVRIANHEITIIEEPIDKGIKLDINALSTILFGYRRPLELNELELISGSEEEIRAFESVVPVRKPFIYDFF
value: soluble
//
seq: MGSDKIHHHHHHMATGTLPDAGQILNSLINSILLVDDDLAVHFANPAAQQLLAQSSRKLFGTPLPELLSYFSLNIGLMQESLQAGQGFTDNEVTLVIDGRSHILSLTAQRLPEGFILLEMAPMDNQRRLSQEQLQHAQQVAARDLVRGLAHEIKNPLGGLRGAAQLLSKALPDPALTEYTKVIIEQADRLRNLVDRLLGPQHPGMHVTESIHKVAERVVKLVSMELPDNVKLIRDYDPSLPELPHDPDQIEQVLLNIVRNALQALGPEGGEIILRTRTAFQLTLHGVRYRLAARIDVEDNGPGIPPHLQDTLFYPMVSGREGGTGLGLSIARSLIDQHSGKIEFTSWPGHTEFSVYLPIRK
value: not soluble
//
seq: MSTSTVETGYGGRIRVTVARNDRDITSEVRTFLCNKENANKIIGLDTERSVVGGDSEYPPESKLVILELSDGQNCLIIPLPYVQGNKLPVSLTNFLNLPDFTFTGVGINKALKMLKSECGLTCKNAVDIGPSSPIYEDWDNDSLTEDQINLAAANAYLAFKVGNLIREAMY
value: soluble
//
seq: MENSHKRGRPDILHQALLVILTDPVIKGDIFIHTIQSKIIKVNPNMRPPKNYLRFIGLMEQLLKYGKIPINGDETLMEVTNLTLDNIVNRYDLILLSEKGEKINPEEICKLDEKWLLGIGAFPHGDFSDKILNLAKKIYSISGFPLETQQVLCRIFSACNS
value: soluble

Next item in the queue.
Ask: Need soluble on expression in E. coli of MGSDKIHHHHHHMTTARRQLIDAESTPFYHVINRCVRRAFLCGEDALSGRSYEHRRDWIVDKIKQLSSVFCIDVCAYAVMSNHYHLVLKINLATQKRLSHFEVIERWTQLFFGHPVAAKFLKGDSLEEGERLLLDSLIGEWQERLGSISWFMRCLNEEIARKANREDGCKGVFWEGRFKSQALLDEQALLACMMYVDLNPIRAGIADSLQGSDYTSIQERIEELASPQSAPVALKPLLAFDGAAIATEQCGIPFHFADYLELIDWTGRAVREDKRGFIATTRPKLLAELGISDDAWITSAKEFRRQYSGISGRWDAMCAMKAKCGGKWCRGKQQSASIHPD , thanks.
Reply: not soluble

###

Assay: soluble on expression in E. coli; label from the status in PepcDB or PDB records
measured.parameter: soluble on expression in E. coli

seq: MMGSKMASASRVVQVVKPHTPLIRFPDRRDNPKPNVSEALRSAGLPSHSSVISQHSKGSKSPDLLMYQGPPDTAEIIKTLPQKYRRKLVSQEEMEFIQRGGPE
value: soluble
//
seq: MAGDPMIEVIGVRFKKAGKIYYFGPNGIEIKKGQNVIVETARGIEFGECVIGIRKISEEDIVAPLKSVLRLATEEDINKHKENKAKETEAFEICLKKIEEHNLVMKLIDVEYTFDNNKVIFYFTAEGRVDFRELVKDLATIFKTRIELRQIGVRDEAKMIGGLGPCGRPLCCSTFLGDFASVSIKMAKEQSLSLNPTKISGICGRLMCCLNYEQSTYEEIRKELPRVGSVVETELGKGEVVGNNVLKELVRVKLPRKNEEIIQDFKMYDVKLISGSYEGEVEDTNIRLEITDEADKALIKNLIKDNLEHHHHHH
value: soluble
//
seq: MSYYHHHHHHLESTSLYKKAGLQALLLEQQDGKTLASVQTLDESRLPEGDVTVDVHWSSLNYKDALAITGKGKIIRNFPMIPGIDFAGTVRTSEDPRFHAGQEVLLTGWGVGENHWGGLAEQARVKGDWLVAMPQGLDARKAMIIGTAGFTAMLCVMALEDAGVRPQDGEIVVTGASGGVGSTAVALLHKLGYQVVAVSGRESTHEYLKSLGASRVLPRDEFAESRPLEKQVWAGAIDTVGDKVLAKVLAQMNYGGCVAACGLAGGFTLPTTVMPFILRNVRLQGVDSVMTPPERRAQAWQRLVADLPESFYTQAAKEISLSEAPNFAEAIINNQIQGRTLVKVN
value: soluble
